target: Tyrosine-protein kinase ABL1 (Homo sapiens)
Sequence (P00519 whole entry): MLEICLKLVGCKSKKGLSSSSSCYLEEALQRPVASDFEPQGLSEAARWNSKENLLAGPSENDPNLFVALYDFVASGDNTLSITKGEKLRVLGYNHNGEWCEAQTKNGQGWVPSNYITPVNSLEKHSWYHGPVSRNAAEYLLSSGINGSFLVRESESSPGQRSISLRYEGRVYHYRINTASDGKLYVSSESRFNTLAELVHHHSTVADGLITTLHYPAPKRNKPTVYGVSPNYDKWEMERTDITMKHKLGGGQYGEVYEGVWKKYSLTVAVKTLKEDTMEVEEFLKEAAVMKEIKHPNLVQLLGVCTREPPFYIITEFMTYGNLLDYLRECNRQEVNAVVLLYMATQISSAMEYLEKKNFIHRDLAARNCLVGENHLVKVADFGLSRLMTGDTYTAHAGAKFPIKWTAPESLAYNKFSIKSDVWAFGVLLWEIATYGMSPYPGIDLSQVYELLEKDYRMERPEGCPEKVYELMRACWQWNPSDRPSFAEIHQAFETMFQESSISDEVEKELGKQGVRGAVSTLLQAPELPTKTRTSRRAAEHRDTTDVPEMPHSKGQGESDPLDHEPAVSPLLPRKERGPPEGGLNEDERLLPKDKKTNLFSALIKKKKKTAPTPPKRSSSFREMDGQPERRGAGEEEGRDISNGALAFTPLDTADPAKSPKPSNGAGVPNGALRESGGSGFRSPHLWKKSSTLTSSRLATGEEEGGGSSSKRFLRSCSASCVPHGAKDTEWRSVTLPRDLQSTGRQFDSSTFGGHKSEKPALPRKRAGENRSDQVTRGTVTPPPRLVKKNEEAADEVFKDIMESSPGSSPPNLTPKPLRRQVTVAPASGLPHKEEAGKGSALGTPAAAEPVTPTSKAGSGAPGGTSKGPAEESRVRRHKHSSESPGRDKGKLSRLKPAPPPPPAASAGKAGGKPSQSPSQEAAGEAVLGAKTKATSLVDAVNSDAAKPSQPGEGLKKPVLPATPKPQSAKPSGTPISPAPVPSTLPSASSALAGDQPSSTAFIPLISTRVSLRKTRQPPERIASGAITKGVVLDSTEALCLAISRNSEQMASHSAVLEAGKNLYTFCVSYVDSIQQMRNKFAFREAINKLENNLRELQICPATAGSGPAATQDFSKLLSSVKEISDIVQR
readout: IC50

Data request: Query (compound): Cc1cc(Nc2ncc(C)c(N3CC(CC#N)(OC4CC5(CC5)C4)C3)n2)sn1 ; field requested: IC50
Data returned: 10300 nM

Data request: Query (compound): Cc1cc(Nc2ncc(C)c(N3CC(O)(C4CC4)C3)n2)sn1 ; field requested: IC50
Data returned: 80 nM

Data request: Query (compound): Cc1cc(Nc2ncc(C)c(N3CC(CCC#N)C3)n2)sn1 ; field requested: IC50
Data returned: 568 nM

Data request: Query (compound): Cc1cc(Nc2ncc(C)c(N3CC4CCC(C3)N4CC#N)n2)sn1 ; field requested: IC50
Data returned: 1310 nM

Data request: Query (compound): Cc1cc(Nc2ncc(C)c(N3CCN(CC#N)[C@@H](C)C3)n2)sn1 ; field requested: IC50
Data returned: 228 nM

Data request: Query (compound): Cc1cc(Nc2ncc(C)c(N3CC(CC#N)(N4CCN(C)CC4)C3)n2)sn1 ; field requested: IC50
Data returned: 21400 nM

Data request: Query (compound): Cc1cnc(Nc2cnn(C)c2)nc1N1CC2CCCC(C1)N2CC#N ; field requested: IC50
Data returned: 16800 nM

====

assay: Intrinsic aqueous solubility of the compound in citrate buffer at pH 6 by HPLC-UV/MS analysis
readout: solubility (µM)
Note: unit µM is implicit; provide only the numeric part.

Data request: Query (molecule): Cc1cc(Nc2ncc(C)c(N3CC4CCCC(C3)N4CC#N)n2)sn1 ; field requested: solubility
Data returned: 35

Data request: Query (molecule): Cc1cnc(Nc2cnn(C)c2)nc1N1CC2CCCC(C1)N2CC#N ; field requested: solubility
Data returned: 7090

Data request: Query (molecule): Cc1cnc(Nc2ccccc2)nc1-c1cnn(CCC#N)c1 ; field requested: solubility
Data returned: 52

Data request: Query (molecule): Cc1cc(Nc2ncc(C)c(N3CCN(CC#N)[C@@H](C)C3)n2)sn1 ; field requested: solubility
Data returned: 16

Data request: Query (molecule): Cc1cc(Nc2ncc(C)c(N3CCN(CC#N)C(C)C3)n2)sn1 (configuration not stated) ; field requested: solubility
Data returned: 19

Data request: Query (molecule): Cc1cc(Nc2ncc(C)c(N3CCN(CC#N)CC3)n2)sn1 ; field requested: solubility
Data returned: 7

Data request: Query (molecule): Cc1cnc(Nc2ccc(N3CCN(C)CC3)cc2)nc1-c1cnn(CCC#N)c1 ; field requested: solubility
Data returned: 33500

Data request: Query (molecule): Cc1cnc(NC2CCOCC2)nc1-c1cnn(CCC#N)c1 ; field requested: solubility
Data returned: 390

Data request: Query (molecule): Cc1cnc(Nc2cnn(C)c2)nc1-c1cnn(CCC#N)c1 ; field requested: solubility
Data returned: 69

Data request: Query (molecule): Cc1cnc(Nc2ccc(N3CCOCC3)cc2)nc1-c1cnn(CCC#N)c1 ; field requested: solubility
Data returned: 13

Data request: Query (molecule): Cc1cc(Nc2ncc(C)c(N3CC4CCC(C3)N4CC#N)n2)sn1 ; field requested: solubility
Data returned: 11

Data request: Query (molecule): Cc1cc(Nc2ncc(C)c(N3CC4CCCC(C3)N4CCC#N)n2)sn1 ; field requested: solubility
Data returned: 11

====

target: UniProt Q96GD4
Sequence (Q96GD4 whole entry): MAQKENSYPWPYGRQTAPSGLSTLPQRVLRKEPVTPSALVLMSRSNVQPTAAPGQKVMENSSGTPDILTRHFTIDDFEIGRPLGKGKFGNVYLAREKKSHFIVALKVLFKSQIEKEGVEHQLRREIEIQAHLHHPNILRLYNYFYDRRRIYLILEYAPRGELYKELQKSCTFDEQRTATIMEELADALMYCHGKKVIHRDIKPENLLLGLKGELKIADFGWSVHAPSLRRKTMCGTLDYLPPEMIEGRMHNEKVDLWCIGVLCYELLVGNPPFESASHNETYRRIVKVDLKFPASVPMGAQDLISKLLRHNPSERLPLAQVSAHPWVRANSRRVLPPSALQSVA
Returns: string. Value is Fulfilled if measured IC50 is below 400 nM, and Not fulfilled if it is greater than or equal to it.

Data request: IC50 under 400 nM? Item: Cc1cc(Nc2ncc(C)c(N3CC4CCCC(C3)N4CC#N)n2)sn1
Data returned: Fulfilled

Data request: IC50 under 400 nM? Item: Cc1cc(Nc2ncc(C)c(-c3cnn(CCC#N)c3)n2)sn1
Data returned: Fulfilled

Data request: IC50 under 400 nM? Item: Cc1cc(Nc2ncc(C)c(N3CC(CC#N)(N4CCCC4)C3)n2)sn1
Data returned: Fulfilled

Data request: IC50 under 400 nM? Item: Cc1cc(Nc2ncc(C)c(N3CC4CCC(C3)N4CC#N)n2)sn1
Data returned: Fulfilled

Data request: IC50 under 400 nM? Item: Cc1cc(Nc2ncc(C)c(N3CC(CC#N)(N4CCN(C)CC4)C3)n2)sn1
Data returned: Not fulfilled

Hello, the source for this data is ChEMBL document CHEMBL5331110, in case you need it.
